# credit: patent US6172079A

Catalogue of pIC50 values
Molecular target: benzodiazepine receptor
Experiment: Benzodiazepine Receptor Binding Assay
Details: read-out: BZP-receptor Binding IC50; [3H]-diazepam 1.5 nM; rat brain crude synaptosome membrane; 0° C., 20 min
Answer as the number alone; pIC50 is minus log10 of concentration in mol/L.

Some solved entries appear below for comparison.
{"Mol smiles": "CCc1nc(-c2cc3c(C(C)C)nccc3[nH]c2=O)no1", "pIC50": 8.43}
{"Mol smiles": "Cc1noc(-c2cc3c(-c4ccc(F)cc4)nccc3[nH]c2=O)n1", "pIC50": 8.64}
{"Mol smiles": "CC(C)c1noc(-c2cc3c(-c4ccco4)nccc3[nH]c2=O)n1", "pIC50": 8.95}
{"Mol smiles": "CCc1nc(-c2cc3c(-c4ccc(Cl)s4)nccc3[nH]c2=O)no1", "pIC50": 8.29}
{"Mol smiles": "CC(C)c1nc(-c2cc3c(-c4ccccc4F)nccc3[nH]c2=O)no1", "pIC50": 8.57}
{"Mol smiles": "CCCc1nc(-c2cc3c(-c4cccs4)nccc3[nH]c2=O)no1", "pIC50": 8.94}
{"Mol smiles": "CCCc1nc(-c2cc3c(-c4ccsc4)nccc3[nH]c2=O)no1", "pIC50": 8.69}
{"Mol smiles": "CCc1nc(-c2cc3c(-c4ccsc4)nccc3[nH]c2=O)no1", "pIC50": 8.97}

Field: next compound
For the compound CCc1nc(-c2cc3c(-c4cccc(F)c4)nccc3[nH]c2=O)no1 , what pIC50 is on record? 9.02

----------
Tested on: GABAA receptor complex (TBPS binding)
Experiment: TBPS Binding Assay
Set-up: species or system Wistar rats
Conditions: [35S]TBPS 0.4 nM, GABA 1 μM, rat cerebral cortex membrane, +% inverse agonistic, 0% antagonistic
Procedure: The TBPS (t-butylbicyclophosphonothionate) binding assay and the preparation of the membrane specimen were done in a similar manner to the method of Biggio, G. et al. [cf. European Journal of Pharmacology, vol. That is, to the cerebral cortex was added a 50-fold volume of an ice-cooled buffer (a 50 mM Tris-citrate buffer containing 100 mM sodium chloride, pH 7.4) and the mixture was homogenized at 0-4° C. and then centrifuged at 20,000 g for 20 minutes. […]
Measurement name: TBPS binding Variation Rate (%)
Reply with just the number (in %).

{"Compound": "O=c1[nH]c2ccnc(-c3cccc(Cl)c3)c2cc1-c1noc(C2CC2)n1 [Example 55]", "Val": -16}
{"Compound": "CCc1nc(-c2cc3c(C)nccc3[nH]c2=O)no1 [Example 13]", "Val": 24}
{"Compound": "CCc1noc(-c2cc3c(-c4ccco4)nccc3[nH]c2=O)n1 [Example 211]", "Val": 24}

// lookup TBPS binding Variation Rate | system=GABAA receptor complex (TBPS binding) | key= CCc1nccc2[nH]c(=O)c(-c3noc(C4CC4)n3)cc12 [Example 48] 18

Input Cc1noc(-c2cc3c(-c4ccco4)nccc3[nH]c2=O)n1 [Example 188] 34

----------
Tested on: GABAA receptor complex (TBPS binding)
Experiment: TBPS Binding Assay
Set-up: species or system Wistar rats
Conditions: [35S]TBPS 0.4 nM, GABA 1 μM, rat cerebral cortex membrane, +% inverse agonistic, 0% antagonistic
Entries and their TBPS binding Variation Rate
Supply the numeric figure in %, leaving out any unit text.

Check out these entries, answers already filled in.
{"Molecule": "CCc1noc(-c2cc3c(-c4ccccc4)nccc3[nH]c2=O)n1 [Example 198]", "TBPS binding Variation Rate [%]": 11}
{"Molecule": "CCc1noc(-c2cc3c(-c4cccs4)nccc3[nH]c2=O)n1 [Example 173]", "TBPS binding Variation Rate [%]": 18}
{"Molecule": "CCc1noc(-c2cc3c(-c4ccncc4)nccc3[nH]c2=O)n1 [Example 213]", "TBPS binding Variation Rate [%]": 26}
{"Molecule": "O=c1[nH]c2ccnc(-c3ccsc3)c2cc1-c1nc(C2CC2)no1 [Example 247]", "TBPS binding Variation Rate [%]": 16}
{"Molecule": "CCc1nc(-c2cc3c(C4CCC4)nccc3[nH]c2=O)no1 [Example 21]", "TBPS binding Variation Rate [%]": 21}
{"Molecule": "CCc1nc(-c2cc3c(-c4ccncc4)nccc3[nH]c2=O)no1 [Example 107]", "TBPS binding Variation Rate [%]": 17}

Hello, I am looking for reported TBPS binding Variation Rate with GABAA receptor complex (TBPS binding) for CCc1nc(-c2cc3c(C4CC4)nccc3[nH]c2=O)no1 [Example 17] . Could you help? 25

Now consider CCc1noc(-c2cc3c(C(C)C)nccc3[nH]c2=O)n1 [Example 193] and answer again. 44

----------
Target: benzodiazepine receptor
Assay: Benzodiazepine Receptor Binding Assay
Details: read-out: BZP-receptor Binding IC50; [3H]-diazepam 1.5 nM; rat brain crude synaptosome membrane; 0° C., 20 min
Entries and their pIC50 values follow.
Units for pIC50: none; it is -log10 of a concentration expressed in mol/L.

{"Mol smiles": "CCCc1nccc2[nH]c(=O)c(-c3nc(CC)no3)cc12", "Val": 8.37}
{"Mol smiles": "Cc1nc(-c2cc3c(-c4ccccc4Cl)nccc3[nH]c2=O)no1", "Val": 8.33}
{"Mol smiles": "CCc1noc(-c2cc3c(-c4ccc(Cl)cc4)nccc3[nH]c2=O)n1", "Val": 8.26}
{"Mol smiles": "CCc1noc(-c2cc3c(-c4ccccc4Cl)nccc3[nH]c2=O)n1", "Val": 8.68}
{"Mol smiles": "CCCc1nc(-c2cc3c(-c4cccc(F)c4)nccc3[nH]c2=O)no1", "Val": 8.54}
{"Mol smiles": "COc1cccc(-c2nccc3[nH]c(=O)c(-c4noc(C)n4)cc23)c1", "Val": 8.66}
{"Mol smiles": "CCCc1nccc2[nH]c(=O)c(-c3noc(CC)n3)cc12", "Val": 8.21}
{"Mol smiles": "CCCc1noc(-c2cc3c(C4CC4)nccc3[nH]c2=O)n1", "Val": 8.61}

# input for lookup
Under benzodiazepine receptor: pIC50 value of CC(C)c1nccc2[nH]c(=O)c(-c3noc(C4CC4)n3)cc12 ? 9.06

----------
The following compounds are shown together with reported TBPS binding Variation Rate values.
System: GABAA receptor complex (TBPS binding)
Assay: TBPS Binding Assay
Parameters: species or system Wistar rats
Settings: [35S]TBPS 0.4 nM, GABA 1 μM, rat cerebral cortex membrane, +% inverse agonistic, 0% antagonistic
Provide the reading as a plain figure in %.

Some compounds with known TBPS binding Variation Rate results, for comparison:
{"Mol smiles": "CCc1nc(-c2cc3c(-c4cccs4)nccc3[nH]c2=O)no1", "TBPS binding Variation Rate / %": 21}
{"Mol smiles": "CCc1noc(-c2cc3c(C)nccc3[nH]c2=O)n1", "TBPS binding Variation Rate / %": 18}
{"Mol smiles": "Cc1noc(-c2cc3c(-c4cccs4)nccc3[nH]c2=O)n1", "TBPS binding Variation Rate / %": 29}
{"Mol smiles": "CC(C)c1nc(-c2cc3c(C(C)C)nccc3[nH]c2=O)no1", "TBPS binding Variation Rate / %": 28}
{"Mol smiles": "CCc1nc(-c2cc3c(C4CCCCC4)nccc3[nH]c2=O)no1", "TBPS binding Variation Rate / %": -23}

For the record CCCc1nccc2[nH]c(=O)c(-c3nc(CC)no3)cc12 , what value of TBPS binding Variation Rate is listed for GABAA receptor complex (TBPS binding)? 13

Entry to check: CCc1noc(-c2cc3c(-c4cccc(F)c4)nccc3[nH]c2=O)n1 17

Try this compound too: Cc1nc(-c2cc3c(-c4ccsc4)nccc3[nH]c2=O)no1 34

Consider next the compound O=c1[nH]c2ccnc(-c3ccccc3)c2cc1-c1noc(C2CC2)n1 in the same way. -11

----------
Biological target: benzodiazepine receptor
Assay: Benzodiazepine Receptor Binding Assay
Details: read-out: BZP-receptor Binding IC50; [3H]-diazepam 1.5 nM; rat brain crude synaptosome membrane; 0° C., 20 min
Measurement name: log10 of IC50 (log10 of the value in nM)
On a log10 scale: recorded IC50, unit nM.

Past entries and their recorded results:
{"Compound": "CCc1nc(-c2cc3c(-c4ccccc4)nccc3[nH]c2=O)no1 [Example 26]", "Measurement name": "log10 of IC50", "Val": -0.17}
{"Compound": "CCc1noc(-c2cc3c(-c4ccc(OC)cc4)nccc3[nH]c2=O)n1 [Example 210]", "Measurement name": "log10 of IC50", "Val": 0.53}

Notebook entry, benzodiazepine receptor assay: log10 of IC50 of Cc1ccccc1-c1nccc2[nH]c(=O)c(-c3noc(C4CC4)n3)cc12 [Example 118] = ? 0.11

Continue with CCc1noc(-c2cc3c(-c4ccc(C)cc4)nccc3[nH]c2=O)n1 [Example 207] 0.53

What do you get for Cc1nc(-c2cc3c(-c4ccccc4C)nccc3[nH]c2=O)no1 [Example 89] ? 1.02
